- system: human orexin-2 receptor (Homo sapiens)
- Construct: expressed in transfected cells; host or cells: CHO cells (grown under G418 selection)
- procedureDetails: Intracellular calcium measurements (FLIPR), CHO cells expressing the human orexin-2 receptor, orexin-A as agonist
- Assay type: cell-based
- conditionsUsed: measured on FLIPR2; 3 nM orexin-A; read-out: OX2 IC50
# maps each entry to its IC50
measurementKind: IC50 (nM)

O=C(NC[C@@H]1CCCN1C(=O)c1nc(C2CC2)sc1-c1ccc(F)cc1)c1cccc2occc12
15
Cc1nc2sccn2c1C(=O)NC[C@@H]1CCCCN1C(=O)c1nc(C2CC2)sc1-c1ccccc1F
3
O=C(NC[C@@H]1CCCCN1C(=O)c1nc(C2CC2)sc1-c1cccc(C(F)(F)F)c1)c1cccc(Br)c1
26
Cc1cccc(C(=O)NC[C@@H]2CCCCN2C(=O)c2nc(C3CC3)sc2-c2ccccc2F)c1
16
O=C(NC[C@@H]1CCCCN1C(=O)c1nc(C2CC2)sc1-c1cccc(Cl)c1)c1noc2ccccc12
11
Cc1ccc(-c2sc(C3CC3)nc2C(=O)N2CCCC[C@H]2CNC(=O)c2c(C)nc3sccn23)cc1
8.6
O=C(NC[C@@H]1CCCCN1C(=O)c1nc(C2CC2)sc1-c1ccccc1F)c1cccc2cccnc12
7.7
Cc1cccc(-c2sc(C3CC3)nc2C(=O)N2CCCC[C@H]2CNC(=O)c2cc3occc3n2C)c1
15

###

- system: human orexin-1 receptor (Homo sapiens, UniProt O43613)
- Construct: expressed in transfected cells; host or cells: CHO cells (grown under G418 selection)
- Sequence (O43613 whole entry): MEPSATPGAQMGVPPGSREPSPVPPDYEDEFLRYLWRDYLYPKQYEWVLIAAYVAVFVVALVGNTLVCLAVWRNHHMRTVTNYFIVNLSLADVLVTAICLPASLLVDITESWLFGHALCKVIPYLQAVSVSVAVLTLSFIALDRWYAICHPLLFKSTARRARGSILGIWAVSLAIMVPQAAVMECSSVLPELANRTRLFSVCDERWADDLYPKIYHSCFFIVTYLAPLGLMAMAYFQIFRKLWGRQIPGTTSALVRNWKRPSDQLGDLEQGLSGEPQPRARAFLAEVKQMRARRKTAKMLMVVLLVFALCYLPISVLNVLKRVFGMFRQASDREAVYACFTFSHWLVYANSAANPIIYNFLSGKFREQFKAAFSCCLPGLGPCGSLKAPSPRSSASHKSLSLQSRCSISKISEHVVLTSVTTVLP
- procedureDetails: Intracellular calcium measurements (FLIPR), CHO cells expressing the human orexin-1 receptor, orexin-A as agonist
- Type: cell-based
- conditionsUsed: measured on FLIPR2; 3 nM orexin-A; read-out: OX1 IC50
measurementKind: log10(IC50) (log10 of the value in µM)

Cc1cccc(-c2sc(C3CC3)nc2C(=O)N2CCCC[C@H]2CNC(=O)c2cc3occc3n2C)c1
-1.60
Cc1ccc(-c2sc(C3CC3)nc2C(=O)N2CCCC[C@H]2CNC(=O)c2c(C)nc3sccn23)cc1
-2.66
O=C(NC[C@@H]1CCCCN1C(=O)c1nc(C2CC2)sc1-c1cccc(Cl)c1)c1noc2ccccc12
-1.72
O=C(NC[C@@H]1CCCN1C(=O)c1nc(C2CC2)sc1-c1ccc(F)cc1)c1cccc2occc12
-1.64
Cc1cccc(C(=O)NC[C@@H]2CCCCN2C(=O)c2nc(C3CC3)sc2-c2ccccc2F)c1
-1.72
Cc1nc2sccn2c1C(=O)NC[C@@H]1CCCCN1C(=O)c1nc(C2CC2)sc1-c1ccccc1F
-2.74
O=C(NC[C@@H]1CCCCN1C(=O)c1nc(C2CC2)sc1-c1cccc(C(F)(F)F)c1)c1cccc(Br)c1
-2.14
O=C(NC[C@@H]1CCCCN1C(=O)c1nc(C2CC2)sc1-c1ccccc1F)c1cccc2cccnc12
-2.29

###

- system: human orexin-2 receptor (Homo sapiens)
- Construct: expressed in transfected cells; host or cells: CHO cells (grown under G418 selection)
- Sequence (O43614 1-444): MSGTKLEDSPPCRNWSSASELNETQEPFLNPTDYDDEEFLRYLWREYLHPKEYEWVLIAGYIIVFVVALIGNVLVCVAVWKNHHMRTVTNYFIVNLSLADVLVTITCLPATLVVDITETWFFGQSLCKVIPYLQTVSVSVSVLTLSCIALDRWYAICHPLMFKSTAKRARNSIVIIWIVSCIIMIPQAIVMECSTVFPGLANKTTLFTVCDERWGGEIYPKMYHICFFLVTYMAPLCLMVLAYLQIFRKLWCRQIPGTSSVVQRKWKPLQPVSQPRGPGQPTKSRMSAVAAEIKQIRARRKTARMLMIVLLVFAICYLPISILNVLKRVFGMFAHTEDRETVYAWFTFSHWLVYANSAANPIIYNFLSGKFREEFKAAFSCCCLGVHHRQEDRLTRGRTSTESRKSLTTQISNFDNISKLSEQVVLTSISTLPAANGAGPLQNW
- procedureDetails: Intracellular calcium measurements (FLIPR), CHO cells expressing the human orexin-2 receptor, orexin-A as agonist
- Format: cell-based
- conditionsUsed: measured on FLIPR Tetra; 3 nM orexin-A; read-out: OX2 IC50
- Description: The orexin receptor antagonistic activity of the compounds of formula (I) is determined in accordance with the following experimental method. […] Within the Fluorescent Imaging Plate Reader (FLIPR2 or FLIPR Tetra, Molecular Devices), antagonists are added to the plate in a volume of 10 μl/well, incubated for 10 min and finally 10 μl/well of agonist is added. […] The calculated IC50 values of the compounds may fluctuate depending on the daily cellular assay performance. […]
Consider the cut-off 20 nM. If the recorded IC50 is strictly smaller, the label is YES; if not, the label is NO.

Cc1cccc(-c2sc(C3CC3)nc2C(=O)N2CCCC[C@H]2CNC(=O)c2cccc3c2CCO3)c1
NO
O=C(NC[C@@H]1CCCCN1C(=O)c1nc(C2CC2)sc1-c1ccccc1)c1cnc2sccn12
YES
Cn1c(C(=O)NC[C@@H]2CCCCN2C(=O)c2nc(C3CC3)sc2-c2ccccc2)cc2occc21
YES
Cc1cccc(-c2sc(C3CC3)nc2C(=O)N2CCCC[C@H]2CNC(=O)c2cccc(F)c2C)c1
YES
